These measurements were taken from PubChem BioAssay (NCI).

System: TK-10 renal
experimentNotes: NCI-60 one-dose screen, 48 h (100 = growth as untreated, 0 = no growth, -100 = all killed)
measurementConditions: 10 µM unless noted
This is part of a sample that, as a whole, favours compounds with a hit. Of some 83,000 tested, about 20% had one in any assay.
resultType: growth (%)

compound	resultType	unitString	readoutValue
CCCCCN(CCCCC)CC(O)c1cc(C)c2ccc3cc(C(C)C)ccc3c2c1 (stereo not drawn)	growth	%	75.5
O=C(CSc1nc(-c2ccccc2)cc(=O)[nH]1)Nc1nc(-c2ccccc2)cs1	growth	%	106
CCN1C(=O)N(CC)C2C1NC(=S)N2/N=C/c1ccc(OC)cc1 (stereo not drawn)	growth	%	79.8
C=C(C)[C@@H]1CC[C@]2(C(N)=O)CC[C@]3(C)[C@H](CC[C@@H]4[C@@]5(C)CC[C@H](OCCC#N)C(C)(C)[C@@H]5CC[C@]43C)[C@@H]12	growth	%	117
O=C1c2cccc3cccc(c23)C(=O)N1C/C=C/c1ccc2c3c(cccc13)C(=O)N(CCO)C2=O	growth	%	98.7
Cc1nnc(-c2ccc3c(c2)nc(/C=C/c2ccccc2)n3C2CCCCC2)o1	growth	%	104
O=C1/C=C/[C@@H](O)[C@@H]2C[C@@H](O)C[C@H]2/C=C/CCC[C@@H](O)CCO1	growth	%	115
CN1C(=O)/C(=C2\SC(=Nc3ccccc3)N(Nc3ccccc3)C2=O)c2ccccc21	growth	%	148
CCOC(=O)c1nn(CC(O)c2ccccc2)c(NC(=O)Nc2cccc(F)c2)c1C (stereo not drawn)	growth	%	105
COc1ccc(/C=C/c2c(C(=O)/C=C/c3ccccc3)c(C)nc3ccccc23)cc1	growth	%	25.1
O=C(Nc1ncc(Cc2ccccc2)s1)c1ccc2c(c1)OCCCO2	growth	%	55.9
NS(=O)(=O)c1ccc(-c2cc(-c3nnc(SCC(=O)Nc4ccc(C(=O)/C=C/c5ccc(Cl)cc5)cc4)n3-c3ccccc3)c3ccccc3n2)cc1	growth	%	96.4
CN1CCN(c2ccc(NC(=O)c3cncnc3Nc3ccc(OCc4cccc(F)c4)c(Cl)c3)cc2)CC1	growth	%	103
COc1ccc(/C=C2\COc3ccc(O)cc3C2=O)cc1	growth	%	104
Cc1cc(Nc2ccc(C(=O)N3CCCC3)cc2)nc(NCCCNc2ccnc3cc(Cl)ccc23)n1	growth	%	106
COCCn1cc(-c2csc(-c3c[nH]c4ccc(Br)cc34)n2)c2cccnc21	growth	%	36.6
CC1(C)NCCC[C@]2(C)[C@H]3CC[C@H]4[C@H]5[C@H](C(=O)/C=C/c6cccnc6)CCC[C@]5(CO)CC[C@@]4(C)[C@]3(C)CC[C@@H]12	growth	%	106
NS(=O)(=O)c1ccc(NC(=O)/C(=C\c2ccc(Cl)cc2Cl)NC(=O)c2ccccc2)cc1	growth	%	104
